The values you see were collected from patent US4192871A.

Experiment: dissolution of the 11β-aminoester salts in aqueous acid (Table 5 and Examples 101, 225-229)
Type: physicochemical
Settings: method D: 1 molar part acid, undissolved material weighed; WT. of solution 10 g, except Ex. 136: 8.95; 140: 9.52; 165 and 167: 10.1; 190 and 198: 9.8; 191: 8.9; 194: 6.6; 204: 10.09; 219: 10.6 g
Procedure: A solution of the above free base (492 mg; 1 mmole) in ethanol (10 ml) was treated with a solution (10 ml) of M/10 citric acid in ethanol water (9:1) and the mixture evaporated in vacuo at low temperature to afford a froth. […] A. The 11β-aminoester (1 part) was added to a solution of the acid (1 molar part) in water and the mixture stirred or shaken until a clear solution was obtained. The solution was made up with water to the weight indicated, filtered through a membrane and the pH determined. […]
test.readout: Dissolved aminoester (mg)

molecule="CCN(CC)CC(=O)O[C@H]1C[C@]2(C)[C@@H](C(C)=O)CC[C@H]2[C@@H]2CC[C@H]3C[C@H](O)C=C[C@]3(C)[C@H]21 [Example 211]" unit_string=mg recorded_number=94
molecule="CC(=O)[C@H]1CC[C@H]2[C@@H]3CC[C@H]4C[C@H](O)CC[C@]4(C)[C@H]3[C@@H](OC(=O)CN(C)C(C)CC(C)C)C[C@]12C (stereo partly drawn) [Example 190]" unit_string=mg recorded_number=86
molecule="CCCN(CCC)CC(=O)O[C@H]1C[C@]2(C)[C@@H](C(C)=O)CC[C@H]2[C@@H]2CC[C@H]3C[C@H](O)CC[C@]3(C)[C@H]21 [Example 219]" unit_string=mg recorded_number=106
